test system: Fusarium strains (Table 18); assay: MIC testing (CLSI M38-A2), Table 18; assay type: cell-based, Fusarium spp.; settings: inhibits 50% of strains
Measured metric: MIC50 (µg/mL)
Give the value in µg/mL but do not write µg/mL after it.

Example compounds with recorded MIC50:
C[C@@H]1[C@H](O)[C@@H](C)/C=C/C=C/C=C/C=C/C=C/C=C/C=C/[C@H](O[C@@H]2O[C@H](C)[C@@H](O)[C@H](N)[C@@H]2O)C[C@@H]2O[C@](O)(C[C@@H](O)C[C@@H](O)[C@H](O)CC[C@@H](O)C[C@@H](O)CC(=O)O[C@H]1C)C[C@H](O)[C@H]2C(=O)O; 0.5
C[C@@H]1[C@H](O)[C@@H](C)/C=C/C=C/C=C/C=C/C=C/C=C/C=C/[C@H](O[C@@H]2O[C@H](C)[C@@H](O)[C@H](N)[C@@H]2O)C[C@@H]2O[C@](O)(C[C@@H](O)[C@H](O)CC[C@@H](O)C[C@@H](O)C[C@@H](O)CC(=O)O[C@H]1C)C[C@H](O)[C@H]2C; 2

The compound `C[C@@H](c1ncncc1F)[C@](O)(Cn1cncn1)c1ccc(F)cc1F` , when measured on Fusarium strains (Table 18), yielded MIC50 of 16

* * *

Below, each of the compounds is paired with its reported MIC50 value.
test system: C. tropicalis; assay: MIC testing (CLSI M27-A3); assay type: cell-based; conditions: C. tropicalis; inhibits 50% of strains
Give the value in µg/mL but do not write µg/mL after it.

C[C@@H](c1ncncc1F)[C@](O)(Cn1cncn1)c1ccc(F)cc1F [Voriconazole, voriconazole]; 0.06

The compound OC(Cn1cncn1)(Cn1cncn1)c1ccc(F)cc1F [Fluconazole, fluconazole] showed MIC50 equal to 0.25

The compound CC[C@H](C)C[C@H](C)CCCCCCCCC(=O)N[C@H]1C[C@@H](O)[C@@H](NCCN)NC(=O)[C@@H]2[C@@H](O)CCN2C(=O)[C@H]([C@H](O)CCN)NC(=O)[C@H]([C@H](O)[C@@H](O)c2ccc(O)cc2)NC(=O)[C@@H]2C[C@@H](O)CN2C(=O)[C@H]([C@@H](C)O)NC1=O [Caspofungin, caspofungin] showed MIC50 equal to 0.25

The compound C[C@@H]1[C@H](O)[C@@H](C)/C=C/C=C/C=C/C=C/C=C/C=C/C=C/[C@H](O[C@@H]2O[C@H](C)[C@@H](O)[C@H](N)[C@@H]2O)C[C@@H]2O[C@](O)(C[C@@H](O)C[C@@H](O)[C@H](O)CC[C@@H](O)C[C@@H](O)CC(=O)O[C@H]1C)C[C@H](O)[C@H]2C(=O)O [Amphotericin B] showed MIC50 equal to 0.25

The compound C[C@@H]1[C@H](O)[C@@H](C)/C=C/C=C/C=C/C=C/C=C/C=C/C=C/[C@H](O[C@@H]2O[C@H](C)[C@@H](O)[C@H](N)[C@@H]2O)C[C@@H]2O[C@](O)(C[C@@H](O)[C@H](O)CC[C@@H](O)C[C@@H](O)C[C@@H](O)CC(=O)O[C@H]1C)C[C@H](O)[C@H]2C [Compound 1A] showed MIC50 equal to 1

* * *

test system: individual Aspergillus spp. (Table 15, species not named); assay: MIC testing (CLSI M38-A2), Table 15; assay type: cell-based; details: Aspergillus sp. of Table 15; caspofungin read as MEC; in µg/mL
Measured metric: MIC Range

C[C@@H]1[C@H](O)[C@@H](C)/C=C/C=C/C=C/C=C/C=C/C=C/C=C/[C@H](O[C@@H]2O[C@H](C)[C@@H](O)[C@H](N)[C@@H]2O)C[C@@H]2O[C@](O)(C[C@@H](O)C[C@@H](O)[C@H](O)CC[C@@H](O)C[C@@H](O)CC(=O)O[C@H]1C)C[C@H](O)[C@H]2C(=O)O; 0.25-16

The molecule `C[C@@H](c1ncncc1F)[C@](O)(Cn1cncn1)c1ccc(F)cc1F` showed MIC Range equal to 0.25-2

The molecule `CC[C@H](C)C[C@H](C)CCCCCCCCC(=O)N[C@H]1C[C@@H](O)[C@@H](NCCN)NC(=O)[C@@H]2[C@@H](O)CCN2C(=O)[C@H]([C@H](O)CCN)NC(=O)[C@H]([C@H](O)[C@@H](O)c2ccc(O)cc2)NC(=O)[C@@H]2C[C@@H](O)CN2C(=O)[C@H]([C@@H](C)O)NC1=O` showed MIC Range equal to 0.25-1

The molecule `C[C@@H]1[C@H](O)[C@@H](C)/C=C/C=C/C=C/C=C/C=C/C=C/C=C/[C@H](O[C@@H]2O[C@H](C)[C@@H](O)[C@H](N)[C@@H]2O)C[C@@H]2O[C@](O)(C[C@@H](O)[C@H](O)CC[C@@H](O)C[C@@H](O)C[C@@H](O)CC(=O)O[C@H]1C)C[C@H](O)[C@H]2C` showed MIC Range equal to 0.5-4

Sourced from patent US20230138395A1
